src = PubChem BioAssay (NCI)

Measured TGI, listed per entry for reference.
Test system: K-562 leukemia
Experiment: NCI tumour cell line growth inhibition, 48 h

These recorded examples may help you get a feel for the data.
> print(dat)
                                   compound  readout.kind  readout.value
1  NC(=O)c1c2c(cc3c(=O)c4ccccc4[nH]c13)CCCC2           TGI      > 97.3 µM
2  COc1cc2c3c(n(C)c(=O)c2cc1OC)-c1cc2c(cc1/C3=C/[C@H](N)CCCCN)OCO2           TGI       > 100 µM
3       O=C1CC/C(=C\COc2ccc3ccc(=O)oc3c2)O1           TGI       > 100 µM
4   Cc1ccc(F)cc1NC(=O)c1cc(Cl)ccc1Nc1ccccc1           TGI       > 100 µM
5                N#Cc1nc(/C=C/c2ccccc2)oc1N           TGI       > 100 µM

Next, consider the following compound.
Lab note: measured TGI of NC1=NC(c2ccc(F)cc2)C2=C(N1)c1ccc3ccccc3c1OCC2 (stereo unspecified) was > 100 µM

---

# TGI per record follows
System: SW-620 colon
Experiment: NCI tumour cell line growth inhibition, 48 h

> print(dat)
                                   compound  measured.target  readout.kind  readout.value
1  COc1ccc(C2=C(c3cc(OC)c(OC)c(OC)c3)C(=O)OC2)cc1OC     SW-620 colon           TGI       > 100 µM
2  O=[N+]([O-])c1ccc(N=Nc2c(O)[nH]c3ccccc23)cc1     SW-620 colon           TGI       > 100 µM
3  COc1ccc(C(O)/C(=C/n2ccnc2)c2ccccc2)cc1OC (stereo not drawn)     SW-620 colon           TGI       > 100 µM
4                             O=C(O)C1SCCS1     SW-620 colon           TGI       > 100 µM
5  COc1ccc(C2c3cc4c(cc3OC(N3CCCCC3)C2C)OCO4)cc1 (stereo not drawn)     SW-620 colon           TGI       > 100 µM
6  COc1ccc(C(=O)CC(c2ccc(OC)c(OC)c2)c2c(O)c3ccccc3oc2=O)cc1OC (stereo not drawn)     SW-620 colon           TGI       > 100 µM
7  Cc1ccccc1C(C(=O)NC1CCCCC1)N(C(=O)Cn1ccnc1C)c1cccc(F)c1 (stereo not drawn)     SW-620 colon           TGI       > 100 µM
8  CC(C)(C)OC(=O)NCC(=O)N1CCCN(C(=O)CNC(=O)OC(C)(C)C)CC1     SW-620 colon           TGI       > 100 µM

GET /values?item= NC(N)=N/N=C/c1c(-c2ccc(Cl)c([N+](=O)[O-])c2)nc2ccccn12 &system= SW-620 colon returns TGI: 3.16 µM

// returns TGI for Clc1ncnc2c1ncn2CCCCCCCCCCCCn1cnc2c(Cl)ncnc21 with SW-620 colon; value = 60.8 µM

Bench note, SW-620 colon: entry O=[N+]([O-])c1ccc(Cl)cc1C=NC12CC3CC(CC(C3)C1)C2 , its TGI = > 100 µM

Value sought: TGI, system SW-620 colon, item COc1cc(CNc2nc3cc(C(F)(F)F)ccc3nc2C)cc(OC)c1OC . Result: 33.6 µM

Oc1cc(Cl)ccc1Cc1ccc(Cl)cc1O tested on SW-620 colon gave TGI: 21.4 µM

---

Form field: TGI (one value per entry).
Test system: NCI-H460 lung
Assay: NCI tumour cell line growth inhibition, 48 h

Take a look at these entries with their results.
> print(dat)
                                   molecule  readout.value
1  Cc1ccc(Oc2nc3ccccc3cc2-c2nnc(Cn3c(COc4ccccc4)nc4ccccc43)o2)cc1        24.4 µM
2  CC(C)C1=CC23CCC4C(C)(C(=O)O)CCCC4(C)C2CC1C(C(=O)O)C3C(=O)O (centres undefined)       > 100 µM
3                       Cc1c(O)c(=O)ccn1CCO       > 100 µM

Field: next molecule
Field TGI (entry Cc1n(CC(=O)c2ccccc2)nc2sc(N)n[n+]12 ) reads > 100 µM

---

Test system: IGROV1 ovarian
Experiment: NCI tumour cell line growth inhibition, 48 h
Readout kind: TGI (µM)
Note: unit µM is implicit; provide only the numeric part.

TGI in this record for O=[N+]([O-])c1cccc(-c2cc(-c3cc(Br)ccc3O)[nH]n2)c1 : 7.06

# TGI of CC(=O)NC1=C(NCc2ccc(Cl)cc2)C(=O)c2ccccc2C1=O = 49.6

Record summary for O=C(/C=C/c1ccccc1O)/C=C/c1ccccc1O : reported TGI = 3.31

Documented TGI of C[C@H](CCC1=NCCN1)[C@H]1CC[C@H]2[C@@H]3CC[C@@H]4C[C@H](O)CC[C@]4(C)[C@H]3C[C@H](O)[C@]12C : 21.9

Consider COC(=O)n1c(CBr)c(Br)c2ccccc21 . Its measured TGI is 93.1

Record summary for CCOC(=O)C(NCc1cccc(C(F)(F)F)c1)(NC(=O)c1ccccc1)C(F)(F)F (stereo not given) : reported TGI = 66.9

---

TGI values for the compounds below.
System: UACC-62 melanoma
Experiment: NCI tumour cell line growth inhibition, 48 h
Please reply with the bare figure in µM and do not write the unit itself.

> print(dat)
                                   compound  readout.kind  readout.value
1  CC(C)=CC1CC(C)C2(CCC3(C)CC4C(C(=O)CC4(C)O)/C(C=O)=C\CC32)O1 (stereo not given)           TGI          0.368

Now for a further compound.
Form field TGI, entry O=C1CC/C(=C\COc2ccc3ccc(=O)oc3c2)O1 : 24.7

---

System: MALME-3M melanoma
Experiment: NCI tumour cell line growth inhibition, 48 h
Readout kind: TGI

> print(dat)
                                   compound  readout.kind  readout.value
1             Cc1nnc2sc(N/N=C/c3ccccc3)nn12           TGI       > 100 µM
2  CN1CC2CC(C1)c1cccc(=O)n1C2 (stereo unspecified)           TGI       > 100 µM

For record CCOC(=O)C(C)c1nc2cc(N3CCN(C)CC3)c(F)cc2[nH]c1=O (stereo unspecified) the listed TGI is > 100 µM

For Cc1ccc(F)cc1NC(=O)c1cc(Cl)ccc1Nc1ccccc1 the compound record lists TGI as > 100 µM

Query O=C1CC/C(=C\COc2ccc3ccc(=O)oc3c2)O1 yields TGI of 24.4 µM

Summary for this compound, COc1cc2c3c(n(C)c(=O)c2cc1OC)-c1cc2c(cc1/C3=C/[C@H](N)CCCCN)OCO2 : TGI is 0.7 µM

---

System: HCC-2998 colon
Experiment: NCI tumour cell line growth inhibition, 48 h; in the data active = GI50 below about 0.43 µM; inactive = the rest
The reply should be one of these categories: active, inactive

# count of solved cases: 4
> print(dat)
                                   compound  measured.target  class.name
1  CNCCOC(=O)/C=C1/CCC2C(C(O)CC3C(C)(C(=O)OC)CCCC23C)C1C (stereo not given)   HCC-2998 colon      active
2  O=[N+]([O-])c1cccc(-c2cc(-c3cc(Br)ccc3O)[nH]n2)c1   HCC-2998 colon    inactive
3   Cc1ccc(F)cc1NC(=O)c1cc(Cl)ccc1Nc1ccccc1   HCC-2998 colon    inactive
4             Cc1cn2c(=O)n(c1=O)Cc1ccccc1C2   HCC-2998 colon    inactive

Please indicate how the test categorized C=C(C)[C@@H]1CC[C@]2(C(=O)NCCNCCNCCN)CC[C@]3(C)[C@H](CC[C@@H]4[C@@]5(C)CCC(=O)C(C)(C)[C@@H]5CC[C@]43C)[C@@H]12 .
inactive

Hey, what did the test say about Nc1ccc(-n2c(=O)oc3ccc(Cl)cc3c2=O)c(Cl)c1 ?
active

For this compound, state the assay outcome: COc1cc(-c2n/c(=C\c3c(O)[nH]c4ccccc34)cc3c2=Nc2ccccc2-3)cc(OC)c1OC
inactive

Could you kindly confirm the outcome this assay logged for CCN1CCC(CC(=O)Nc2n[nH]c3nc(-c4cccs4)c(Br)cc23)CC1 ?
inactive

Lab log entry: COc1ccc(-n2c(C)nc3c(c(C)nn3-c3ccccc3)c2=O)cc1 — outcome as called in the assay?
active

GET /call?item= COC(=O)[C@@H]1CCCN1C(=O)[C@H]1CCCN1C(=O)[C@@H](Cc1c[nH]c2ccccc12)NC(=S)Nc1cc(C(F)(F)F)cc(C(F)(F)F)c1 returns the recorded outcome of this test.
inactive
